# test_system: Soluble guanylate cyclase alpha1/beta1 complex (Homo sapiens) (UniProt Q02153+Q02108)
# protocol_details: Binding affinity to sGC subunit alpha-1/beta-1 catalytic domain (unknown origin) assessed as occupancy relative to control
# Format: protein-complex assay

{"compound": "Cc1ccccc1Cn1nc(-c2nc(CN)no2)c2ccccc21", "Occ / %": 101}
{"compound": "Cc1ccc(Cn2nc(-c3nc(CN)no3)c3ccccc32)cc1", "Occ / %": 90}
{"compound": "CC(=O)Nc1ccc(Cn2nc(-c3nc(CNC(=O)OC(C)(C)C)no3)c3ccccc32)cc1", "Occ / %": 62}
{"compound": "CC(C)(C)OC(=O)NCc1noc(-c2nn(Cc3ccc4c(c3)OCO4)c3ccccc23)n1", "Occ / %": 40}
{"compound": "Cc1oncc1Cn1nc(-c2nc(CN)no2)c2ccccc21", "Occ / %": 34}
{"compound": "NCc1noc(-c2c3ccccc3nn2CCn2ccnc2)n1", "Occ / %": 28}

* * *

# test_system: Soluble guanylate cyclase alpha1/beta1 complex (Homo sapiens) (UniProt Q02153+Q02108)
# protocol_details: Activation of human recombinant sGC subunit alpha-1/beta-1 using GTP as substrate assessed as cGMP production measured per ng of protein at 100 uM treated prior to DEA/NO addition measured after 2 mins by radioimmunoassay in presence of Mg2+
# Assay type: protein-complex assay
Output schema: class label derived from Activity. Mapping: bottom bin: < 3 pmol; middle bin: ≥ 3 pmol and < 9 pmol; top bin: ≥ 9 pmol

{"compound": "NCc1noc(-c2c3ccccc3nn2CCn2ccnc2)n1", "test_system": "Soluble guanylate cyclase alpha1/beta1 complex (Homo sapiens) (UniProt Q02153+Q02108)", "label": "bottom bin"}
{"compound": "COc1ccc(Cn2nc(-c3nc(CN)no3)c3ccccc32)cc1", "test_system": "Soluble guanylate cyclase alpha1/beta1 complex (Homo sapiens) (UniProt Q02153+Q02108)", "label": "bottom bin"}
{"compound": "NCc1noc(-c2c3ccccc3nn2Cc2cccc(Cl)c2)n1", "test_system": "Soluble guanylate cyclase alpha1/beta1 complex (Homo sapiens) (UniProt Q02153+Q02108)", "label": "bottom bin"}
{"compound": "CC(=O)Nc1ccc(Cn2nc(-c3nc(CNC(=O)OC(C)(C)C)no3)c3ccccc32)cc1", "test_system": "Soluble guanylate cyclase alpha1/beta1 complex (Homo sapiens) (UniProt Q02153+Q02108)", "label": "bottom bin"}
{"compound": "CC(C)(C)OC(=O)NCc1noc(-c2nn(Cc3ccc4c(c3)OCO4)c3ccccc23)n1", "test_system": "Soluble guanylate cyclase alpha1/beta1 complex (Homo sapiens) (UniProt Q02153+Q02108)", "label": "top bin"}
{"compound": "Cc1ccccc1Cn1nc(-c2nc(CN)no2)c2ccccc21", "test_system": "Soluble guanylate cyclase alpha1/beta1 complex (Homo sapiens) (UniProt Q02153+Q02108)", "label": "middle bin"}
{"compound": "CC(=O)n1nc(-c2nc(CN)no2)c2ccccc21", "test_system": "Soluble guanylate cyclase alpha1/beta1 complex (Homo sapiens) (UniProt Q02153+Q02108)", "label": "middle bin"}
{"compound": "Cc1ccc(Cn2nc(-c3nc(CN)no3)c3ccccc32)cc1", "test_system": "Soluble guanylate cyclase alpha1/beta1 complex (Homo sapiens) (UniProt Q02153+Q02108)", "label": "top bin"}
